Record form. Attribute: inhibition. Fill in for each entry.
molecular target: Solute carrier family 2, facilitated glucose transporter member 1 (Homo sapiens) (UniProt P11166); assay: ST_JUDE_LEISH: Cytotoxicity at 2uM final concentration against transgenic Leishmania Mexicana promastigotes LmGLUT1 that are glucose transport deficient and complemented with the human glucose transporter GLUT1. Activity is measured by DNA content using SYBR green in vitro; type: functional
Sequence (P11166 whole entry): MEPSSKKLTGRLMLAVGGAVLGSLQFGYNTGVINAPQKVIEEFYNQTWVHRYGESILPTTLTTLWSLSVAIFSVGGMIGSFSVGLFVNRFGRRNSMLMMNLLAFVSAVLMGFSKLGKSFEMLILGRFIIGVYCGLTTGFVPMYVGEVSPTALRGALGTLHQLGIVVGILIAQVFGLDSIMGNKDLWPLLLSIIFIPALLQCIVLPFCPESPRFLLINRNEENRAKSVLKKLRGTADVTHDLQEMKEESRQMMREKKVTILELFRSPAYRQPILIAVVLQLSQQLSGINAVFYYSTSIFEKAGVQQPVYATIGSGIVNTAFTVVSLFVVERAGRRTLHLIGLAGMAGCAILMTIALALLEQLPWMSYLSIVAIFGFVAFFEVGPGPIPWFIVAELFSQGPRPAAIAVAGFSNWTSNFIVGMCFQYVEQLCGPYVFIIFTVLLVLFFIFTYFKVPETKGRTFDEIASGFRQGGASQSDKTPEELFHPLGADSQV
Answers are plain numbers, in %.

>>> recorded_value("O=C(O)CNCC(O)c1ccccc1 (stereo not given)")
0.32

Hi! Can you tell me inhibition for each of these molecules?
1. OCC1CCN(Cc2ccc(-c3ccc(-c4nc5ccccc5[nH]4)cc3)cc2)CC1
2. COc1ccc2nccc(N(C)CC3(O)CCC(NCc4ccc5c(n4)NC(=O)CS5)CC3)c2n1 (stereo not given)
3. CN(C(=O)Cc1ccc(Cl)c(Cl)c1)C1CCN(CCCCCNC(=O)/C=C/c2ccc(Cl)c(Cl)c2)CC1

1: 6.11; 2: 3.69; 3: 4.46

Item under review: `O=C(Nc1cccc(CN2CCCN(Cc3ccc(O)cc3)CC2)c1)c1ccc(Cl)c(Cl)c1` . Reported inhibition? 10.6
